# MEASUREMENT_NOTES: qHTS of pediatric cancer cell lines to identify multiple opportunities for drug repurposing: Confirmatory screen for SK-N-SH cells (AID 1347129);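 also: cells exposed to compound for 48 h before viability read; nearly all actives have a fitted effect of over 60% in size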
# STUDY_CONDITIONS: SK-N-SH neuroblastoma cell viability; series mostly up to 46.1 µM
Inconclusive results are not listed. The source made the active and inactive calls. Calls follow the shape of the dose curve; as a rule, active = well fitted cell-killing curve with a large enough effect; inconclusive = small, poorly fitted or top-dose-only effect; inactive = flat fitted curve, though single readings scatter.
The categories you may choose from are label 1 for active, label 0 for inactive

COMPOUND: Cc1ccccc1-n1c(Cn2nc(-c3cccc(O)c3)c3c(N)ncnc32)nc2cccc(C)c2c1=O
ASSIGNED_CATEGORY: label 0

COMPOUND: CC1(C)OC2CC3C4CC(F)C5=CC(=O)C=CC5(C)C4C(O)CC3(C)[C@]2(C(=O)CO)O1 (stereo partly specified)
ASSIGNED_CATEGORY: label 0

COMPOUND: COc1cc2c(cc1OC)[C@@H]1Cc3ccc(OC)c(OC)c3CN1CC2
ASSIGNED_CATEGORY: label 0

COMPOUND: CCC(C)SSc1ncc[nH]1 (stereo unspecified)
ASSIGNED_CATEGORY: label 1

COMPOUND: CO[C@H]1/C=C\O[C@@]2(C)Oc3c(C)c(O)c4c(O)c(c(C=NN5CCN(C6CCCC6)CC5)c(O)c4c3C2=O)NC(=O)C(C)=CC=C[C@H](C)[C@H](O)[C@@H](C)[C@@H](O)[C@@H](C)[C@H](OC(C)=O)[C@H]1C
ASSIGNED_CATEGORY: label 0

Test call, this compound: OCCn1cc(-c2ccc3c(c2)CCC3=NO)c(-c2ccncc2)n1
label 0

Test call, this compound: CSc1cccc(Nc2ncc3cc(-c4c(Cl)cccc4Cl)c(=O)n(C)c3n2)c1
label 1

Test call, this compound: C=C1[C@H](n2cnc3c(=O)[nH]c(N)nc32)C[C@H](O)[C@H]1CO
label 0

Test call, this compound: CC[C@H](NC(=O)[C@H](C)NC)C(=O)N1C[C@@H](O)C[C@H]1Cc1c(-c2[nH]c3cc(F)ccc3c2C[C@H]2C[C@H](O)CN2C(=O)[C@H](CC)NC(=O)[C@H](C)NC)[nH]c2cc(F)ccc12
label 0

Test call, this compound: COC(=O)[C@H](c1ccccc1Cl)N1CCc2sccc2C1
label 0

###

# MEASUREMENT_TARGET: Cytochrome P450 2D6 (Homo sapiens)
# MEASUREMENT_NOTES: Cytochrome P450 family 2 subfamily D member 6 (CYP2D6) small molecule antagonists: luciferase biochemical (cell-free) qHTS assay (AID 1645840); also: nearly all actives have a fitted effect of over 55% in size; also: potency is read from the fitted curve at half-maximal effect
# STUDY_CONDITIONS: P450-Glo CYP2D6 enzyme, luciferin luminescence, 1 h; series mostly up to 57.4 µM
Inconclusive results are not listed. The source made the active and inactive calls. Calls come from the whole dose curve; as a rule, active = well fitted inhibition curve with a large enough effect in the repeat runs; inconclusive = weak or mixed curves; inactive = flat fitted curve, though single readings scatter.
QUANTITY_KIND: Potency

Worked cases, answers included:
COMPOUND: COc1ccc(-c2ccc3ncc4c(c3c2)n(-c2ccc(N3CCNCC3)c(C(F)(F)F)c2)c(=O)n4C)cn1
MEASUREMENT_TARGET: Cytochrome P450 2D6 (Homo sapiens)
RECORDED_VALUE: inactive
//
COMPOUND: Cn1c(=O)c(-c2c(Cl)cccc2Cl)cc2cnc(Nc3cccc(C(=O)O)c3)nc21
MEASUREMENT_TARGET: Cytochrome P450 2D6 (Homo sapiens)
RECORDED_VALUE: inactive
//
COMPOUND: Cc1ccc2c(c1)c1c(n2CCc2ccc(C)nc2)CCN(C)C1
MEASUREMENT_TARGET: Cytochrome P450 2D6 (Homo sapiens)
RECORDED_VALUE: 8.49 µM (active)
//
COMPOUND: O=C(Nc1ccc(OC(F)(F)F)cc1)c1sccc1NCc1ccnc2ccccc12
MEASUREMENT_TARGET: Cytochrome P450 2D6 (Homo sapiens)
RECORDED_VALUE: 16.9 µM (active)

Next, consider the following compound.
State Potency on Cytochrome P450 2D6 (Homo sapiens). Entry: C[C@@]1(c2cc(-c3cncnc3)c(F)cc2F)CCSC(N)=N1
6.74 µM (active)
